biological target: rat sucrase (partially purified alpha-glucosidase from intestinal rat powder) (Rattus norvegicus)
Sequence (P23739 whole entry): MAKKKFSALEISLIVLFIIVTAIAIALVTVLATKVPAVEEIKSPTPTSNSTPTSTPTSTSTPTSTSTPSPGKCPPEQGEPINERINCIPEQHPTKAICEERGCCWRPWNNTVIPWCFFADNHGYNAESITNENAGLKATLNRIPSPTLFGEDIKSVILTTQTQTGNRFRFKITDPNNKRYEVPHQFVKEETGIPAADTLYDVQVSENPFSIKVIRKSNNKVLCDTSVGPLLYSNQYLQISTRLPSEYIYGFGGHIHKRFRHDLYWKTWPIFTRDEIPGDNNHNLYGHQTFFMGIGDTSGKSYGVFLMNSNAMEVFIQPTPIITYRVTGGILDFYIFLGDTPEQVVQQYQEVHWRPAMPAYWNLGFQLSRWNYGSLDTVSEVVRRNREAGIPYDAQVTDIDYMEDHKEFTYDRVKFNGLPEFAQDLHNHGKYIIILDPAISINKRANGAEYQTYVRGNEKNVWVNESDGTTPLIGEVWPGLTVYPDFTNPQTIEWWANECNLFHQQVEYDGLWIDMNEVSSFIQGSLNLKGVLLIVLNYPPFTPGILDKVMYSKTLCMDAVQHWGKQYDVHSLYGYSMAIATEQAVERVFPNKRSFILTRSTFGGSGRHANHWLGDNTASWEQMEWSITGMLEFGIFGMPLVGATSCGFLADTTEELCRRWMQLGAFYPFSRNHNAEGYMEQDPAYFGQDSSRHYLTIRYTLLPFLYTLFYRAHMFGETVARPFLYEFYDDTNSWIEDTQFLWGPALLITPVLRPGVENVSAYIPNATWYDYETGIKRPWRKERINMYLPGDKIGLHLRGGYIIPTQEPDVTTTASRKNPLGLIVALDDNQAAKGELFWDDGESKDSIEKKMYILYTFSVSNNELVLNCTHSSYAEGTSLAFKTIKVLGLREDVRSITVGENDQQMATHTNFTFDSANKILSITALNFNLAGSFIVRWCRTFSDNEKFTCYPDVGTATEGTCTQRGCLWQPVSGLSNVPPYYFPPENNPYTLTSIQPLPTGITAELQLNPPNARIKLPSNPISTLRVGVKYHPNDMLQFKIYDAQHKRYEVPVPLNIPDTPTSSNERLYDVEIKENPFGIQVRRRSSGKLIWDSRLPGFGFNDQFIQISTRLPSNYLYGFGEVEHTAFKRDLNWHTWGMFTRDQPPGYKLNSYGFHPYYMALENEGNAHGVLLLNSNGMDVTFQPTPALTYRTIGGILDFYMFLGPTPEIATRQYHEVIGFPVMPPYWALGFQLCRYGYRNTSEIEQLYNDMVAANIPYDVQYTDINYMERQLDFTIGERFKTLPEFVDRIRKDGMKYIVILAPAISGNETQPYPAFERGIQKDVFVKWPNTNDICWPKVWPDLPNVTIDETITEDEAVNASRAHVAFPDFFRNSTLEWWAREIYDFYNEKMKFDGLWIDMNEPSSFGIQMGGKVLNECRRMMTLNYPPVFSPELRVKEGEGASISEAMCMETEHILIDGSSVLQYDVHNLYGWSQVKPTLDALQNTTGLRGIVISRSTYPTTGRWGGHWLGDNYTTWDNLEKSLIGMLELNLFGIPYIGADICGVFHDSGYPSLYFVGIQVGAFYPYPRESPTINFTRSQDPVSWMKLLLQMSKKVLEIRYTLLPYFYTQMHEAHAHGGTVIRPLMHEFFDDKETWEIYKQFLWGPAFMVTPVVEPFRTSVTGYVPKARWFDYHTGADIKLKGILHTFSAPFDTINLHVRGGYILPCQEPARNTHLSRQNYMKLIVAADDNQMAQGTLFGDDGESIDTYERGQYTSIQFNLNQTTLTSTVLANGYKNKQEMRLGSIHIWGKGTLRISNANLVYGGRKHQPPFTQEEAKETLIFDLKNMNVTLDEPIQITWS
Here the recorded IC50 is given for each entry.
Form entry: value (nM) — number only.

The cases that follow already have their IC50 on record.
OC[C@@H]1[C@@H](O)[C@H](O)[C@@H](O)CN1CCCCCCNc1cc(-c2cccnn2)cc(C2CC2)c1 78
COc1cc(-c2ncccn2)ccc1NCCCCCCN1C[C@H](O)[C@@H](O)[C@H](O)[C@H]1CO 67
O=S(=O)(Nc1cc(-c2ncccn2)ccc1NCCCCCCN1C[C@H](O)[C@@H](O)[C@H](O)[C@H]1CO)C1CC1 104

Now for the molecule whose IC50 we want.
Find the recorded IC50 belonging to [N-]=[N+]=Nc1ccc(NCc2ccc(-c3ccc(CN4C[C@H](O)[C@@H](O)[C@H](O)[C@H]4CO)cc3)cc2)c([N+](=O)[O-])c1 and report it.
156
